Target: Aurora A kinase (Accession No. NP-940839) (Homo sapiens, UniProt O14965)
Construct: purchased ThermoFisher Scientific (Invitrogen)
Sequence (O14965 whole entry): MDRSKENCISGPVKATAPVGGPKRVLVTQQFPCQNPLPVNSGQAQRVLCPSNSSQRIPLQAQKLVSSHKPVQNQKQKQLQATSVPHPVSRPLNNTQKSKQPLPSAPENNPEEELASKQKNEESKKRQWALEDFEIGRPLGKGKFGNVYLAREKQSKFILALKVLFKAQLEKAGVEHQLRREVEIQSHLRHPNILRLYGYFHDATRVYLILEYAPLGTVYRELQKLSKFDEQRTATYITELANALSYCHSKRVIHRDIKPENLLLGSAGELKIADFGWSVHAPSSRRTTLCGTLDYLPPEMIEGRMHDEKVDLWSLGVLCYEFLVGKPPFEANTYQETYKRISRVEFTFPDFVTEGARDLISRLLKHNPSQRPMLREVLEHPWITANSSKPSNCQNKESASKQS
Assay: HotSpot Kinase Assay, Aurora A
Format: biochemical
Conditions: comparator compounds; read-out: Aurora A Activity
Measurement kind: IC50 (nM)
A number alone suffices; assume nM.

### Prompt Endpoint output: IC50 of CN1CCN(c2ccc(Nc3ncc(Cl)c(Nc4ccc(C(N)=O)c(OCc5ccccc5F)c4)n3)cc2)CC1 [CF-03, reference compound] . Value?
### Response 0.1

### Prompt Entry to check: CN1CCN(c2ccc(Nc3ncc(Cl)c(Nc4ccc(C#N)c(OCc5ccccc5F)c4)n3)cc2)CC1 [CF-02, reference compound]
### Response 313

### Prompt Similarly, CN1CCN(Cc2ccc(Nc3ncc(Cl)c(Nc4ccc(C#N)c(OCc5ccccc5F)c4)n3)cc2)CC1 [CF-01, reference compound] ?
### Response 796
